Give EC50 for every item shown.
- target_entity: T1, His-tagged extracellular domain (ECD) of human IGSF11 (VSIG3) (human, UniProt Q5DX21 23-241)
- T1 construct: partly bought (SinoBiological 13094-H08H); also called IGSF11-HIS; HIS-IGSF11; not shown: HIS6 tag
- T1 sequence: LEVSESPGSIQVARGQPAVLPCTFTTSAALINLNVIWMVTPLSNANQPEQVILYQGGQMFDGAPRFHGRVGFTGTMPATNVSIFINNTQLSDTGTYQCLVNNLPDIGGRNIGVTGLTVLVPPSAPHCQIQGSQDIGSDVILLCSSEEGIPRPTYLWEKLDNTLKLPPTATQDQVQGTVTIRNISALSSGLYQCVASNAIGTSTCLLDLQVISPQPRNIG
- assay_method_text: ELISA EC50 grade, IgG1

Look up EC50: A-013 (IgG1 format) (antibody, V domains shown, human IgG1 format) VH: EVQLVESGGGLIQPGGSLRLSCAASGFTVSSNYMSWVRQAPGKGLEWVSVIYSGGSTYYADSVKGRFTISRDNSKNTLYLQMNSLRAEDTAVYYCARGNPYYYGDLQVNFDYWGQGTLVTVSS VL: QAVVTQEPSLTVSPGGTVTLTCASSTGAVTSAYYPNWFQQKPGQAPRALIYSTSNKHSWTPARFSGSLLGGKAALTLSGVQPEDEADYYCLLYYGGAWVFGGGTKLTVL
< 0.02 nM

And A-003 (IgG1 format) (antibody, V domains shown, human IgG1 format) VH: VQLVQSGAEVKKPGSSVKVSCKASGGTFSSYAISWVRQAPGQGLEWMGGIIPIFGTANYAQKFQGRVTITADESTSTAYMELSSLRSEDTAVYYCASPRIQLWAAGGFDYWGQGTLVTVSS VL: QSALTQPASVSGSPGQSITISCTGTSSDVGGYNLVSWYQQHPGKAPKLMIYDVSNRPSGVSNRFSGSKSGNTASLTISGLQAEDEADYYCSSFTTSTTLVFGGGTKLTVL ?
0.05 to 1 nM

And A-006 (IgG1 format) (antibody, V domains shown, human IgG1 format; also called A-006-like ABP) VH: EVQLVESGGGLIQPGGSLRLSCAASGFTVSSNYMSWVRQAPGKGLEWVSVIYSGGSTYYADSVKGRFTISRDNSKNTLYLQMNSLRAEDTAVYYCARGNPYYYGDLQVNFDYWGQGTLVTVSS VL: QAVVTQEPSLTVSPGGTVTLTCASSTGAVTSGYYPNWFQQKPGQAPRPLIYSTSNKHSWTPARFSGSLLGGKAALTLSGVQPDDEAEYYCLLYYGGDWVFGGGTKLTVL ?
< 0.02 nM

And A-024 (IgG1 format) (antibody, V domains shown, also called A-024-like ABP) VH: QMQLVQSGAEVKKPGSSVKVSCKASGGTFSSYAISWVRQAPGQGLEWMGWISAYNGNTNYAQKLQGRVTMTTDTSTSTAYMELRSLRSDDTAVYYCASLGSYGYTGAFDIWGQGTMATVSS VL: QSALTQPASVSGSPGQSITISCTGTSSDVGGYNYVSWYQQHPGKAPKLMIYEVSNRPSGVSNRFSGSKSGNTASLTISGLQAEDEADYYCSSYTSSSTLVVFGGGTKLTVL ?
0.02 to 0.05 nM

And A-010 (IgG1 format) (antibody, V domains shown, human IgG1 format) VH: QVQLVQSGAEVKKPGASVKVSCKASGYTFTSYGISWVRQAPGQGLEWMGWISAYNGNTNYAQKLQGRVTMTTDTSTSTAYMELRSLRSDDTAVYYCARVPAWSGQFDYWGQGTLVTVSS VL: QSALTQPASVSGSPGQSITISCTGSSSDVGGYNYVSWYQQYPGKAPKLMIYDVRSRPSGVSNRFSGSKSGNTASLTISGLQAEDEADYYCTSYTSSNTLVIFGGGTKVTVL ?
< 0.02 nM

And A-023 (IgG1 format) (antibody, V domains shown, human IgG1 format) VH: QVQLVQSGAEVKKPGSSVKVSCKASGGTFSSYAISWVRQAPGQGLEWMGGIIPIFGTANYAQKFQGRVTITADESTSTAYMELSSLRSEDTAVYYCARPKYSSGWFYYYGMDVWGQGTTVTVSS VL: QSVLTQPPSVSAAPGQKVTISCSGSSSNIGNNYVSWYQQLPGTAPKLLIYDNNKRPSGIPDRFSGSKSGTSATLGITGLQTGDEADYYCGTWDSSLSVVFGGGTKLTVL ?
0.05 to 1 nM

And A-022 (IgG1 format) (antibody, V domains shown, human IgG1 format) VH: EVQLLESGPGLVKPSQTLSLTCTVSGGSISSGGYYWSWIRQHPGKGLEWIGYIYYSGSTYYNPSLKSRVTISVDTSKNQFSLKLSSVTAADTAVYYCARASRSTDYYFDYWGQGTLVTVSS VL: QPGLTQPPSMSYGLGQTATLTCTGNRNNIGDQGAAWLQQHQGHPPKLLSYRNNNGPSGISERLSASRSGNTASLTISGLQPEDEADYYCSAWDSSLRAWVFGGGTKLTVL ?
< 0.02 nM
